System: SK-MEL-28 melanoma
assayMethodText: NCI-60 one-dose screen, 48 h (100 = growth as untreated, 0 = no growth, -100 = all killed)
measurementConditions: 10 µM unless noted
About 83,000 compounds went through this panel and 20% of them were active in at least one assay; those are over-represented in the sample as a whole.
reportedProperty: growth (%)
Answers are plain numbers, in %.

Consider the following illustrative entries.
> print(dat)
                                   molecule  measureunit   val
1  O=C(CN1CCN(c2cc(=O)[nH]c3ccc(F)cc23)CC1)N(c1ccccc1)c1ccccc1            %   111
2  Clc1ccc(CSc2nnc(-c3ccc(Cl)cc3)n2-c2ccccc2)cc1            %  98.8
3  COc1ccc(/C=N/NC(=O)c2c(N)nn(C)c2Nc2ccccc2)cc1            %  57.5
4  O=C(CCCCCCNC(=O)C(O)(O)C(F)(F)F)Nc1ccc(Cl)cc1            %    27
5            C#Cc1nc(/C=C\CCCCCCC(=O)NO)cs1            %  54.1

# batch size: 4; output growth per entry
1. C#CCN(C)CCCOc1ccc(NC(=O)CCCCCCCCC(=O)NO)cc1Cl
2. O=C1Nc2cc(Cl)ccc2/C1=C\c1ccc(OCc2ccccc2)cc1
3. COc1ccc(C2CC(c3cccc(OCCCCOc4cccc(C5=NOC(c6ccc(OC)cc6)C5)c4)c3)=NO2)cc1 (stereo not given)
4. CCCCCC[n+]1ccc(SCC(=O)n2ccc3ccccc32)c2ccccc21

(A)
[77, 103, 102, 106]

(Q) State the recorded growth for this entry: N#C/C(=N\Nc1ccc(F)cc1)C(=O)Nc1cc(-c2ccccc2)nn1-c1ccccc1
(A) 22.1

* * *

So I've got a bunch of compounds here, and I need their growth values.
Tested on: MCF7 breast
assayMethodText: NCI-60 one-dose screen, 48 h (100 = growth as untreated, 0 = no growth, -100 = all killed)
measurementConditions: 10 µM unless noted
About 83,000 compounds went through this panel and 20% of them were active in at least one assay; those are over-represented in the sample as a whole.
One number for each entry, in %.

# batch size: 8; output growth per entry
1. COC(=O)N1CCN(CCNCc2ccc(NC(=O)c3ccc(C)c(C#Cc4cnc5cccnn45)c3)cc2C(F)(F)F)CC1
2. CNC(=O)c1cc(N2CCc3cc(NC(=O)Nc4ccc(N5CCN(C)CC5)c(C(F)(F)F)c4)ccc32)ccn1
3. COc1cc2cc(Oc3ccc(NC(=O)c4cc(C(F)(F)F)cc(C(F)(F)F)c4)cc3)c(C)nc2cc1OCCN1CCOCC1
4. COc1cc(C(=O)c2cc(C(C)=O)c3ccc(C)cn23)cc(OC)c1OC
5. CC[C@]12C=CCN3CC[C@@]4(c5ccc(OC)cc5N(C)[C@H]4[C@@](O)(C(=O)OC)[C@@H]1OC(=O)CCN1CCc4ccccc4C1)[C@@H]32
6. O=C1Nc2ccccc2/C1=N\c1nnc(-c2ccccc2)o1
7. Cc1ccc(C(=O)Nc2ccc(CNCCN3CCOCC3)c(C(F)(F)F)c2)cc1C#Cc1cnc2cccnn12
8. NS(=O)(=O)c1ccc(Nc2nc(Nc3ccccc3)nc(N3N=C(c4ccc(Cl)cc4)CC3c3ccc(Cl)cc3)n2)cc1 (stereo not drawn)

(A)
-6.54
-2.1
26.4
14.8
82.5
66.3
6.79
12.8

* * *

Tested on: MALME-3M melanoma
assayMethodText: NCI-60 one-dose screen, 48 h
measurementConditions: 10 µM unless noted
The panel holds about 83,000 compounds, 20% with a hit somewhere; the sample as a whole holds those more often. Active and inactive are the calls of the source. How the source made its calls: active means growth percent below 10; inactive means the rest.
Lab note: assign the record to one of active, inactive

> print(dat)
                               recordsmiles         systemname  classname
1  CC(C)(C)c1cc(NC(=O)Nc2ccc(-c3cn4c5c(sc4n3)CCc3c[nH]cc3-5)cc2)no1  MALME-3M melanoma     active
2  CC1=C(C)C(=O)C(Nc2cccc(C(=O)OC(C)(C)C)c2)=CC1=O  MALME-3M melanoma   inactive
3    CSc1ccc(/C(=N/N=C(N)N)c2ccc(Cl)cc2)cc1  MALME-3M melanoma   inactive
4  O=C1Nc2cc(Cl)ccc2/C1=C\c1ccc(OCc2ccccc2)cc1  MALME-3M melanoma   inactive
5  Cn1cc(-c2nn3cc(-c4ccncc4)nc3s2)c2cc(Br)ccc21  MALME-3M melanoma   inactive

(Q) Called result for Cc1csc(/N=C(N)/N=C(\N)c2cccs2)n1
(A) inactive

(Q) Now this one: COc1cc(-c2nc(-c3ccccc3)[nH]c2-c2ccnc(NCCCNS(=O)(=O)c3ccc(C)cc3)n2)ccc1F
(A) inactive

(Q) Now this one: C/C(=N\NC(N)=S)c1nnn(-c2ccc([N+](=O)[O-])cc2)c1C
(A) inactive

(Q) Now this one: O=C(/C=C/c1csc(Br)n1)NO
(A) active

(Q) Now this one: O=c1c2cc(-c3ccc(F)cc3F)ccc2n(Nc2ccccc2)c(=O)n1-c1cccc(C(F)(F)F)c1
(A) active

* * *

Test system: A549/ATCC NSCLC
assayMethodText: NCI-60 one-dose screen, 48 h
measurementConditions: 10 µM unless noted
This is part of a sample that, as a whole, favours compounds with a hit. Of some 83,000 tested, about 20% had one in any assay. Active and inactive are the calls of the source. The calls were made as follows: active = growth percent below 10; inactive = the rest.
Lab note: assign the record to one of Yes for active, No for inactive

For orientation, consider the following solved cases.
> print(dat)
                               recordsmiles       systemname  classname
1  Brc1ccc2[nH]cc(-c3nn4cc(-c5nccs5)nc4s3)c2c1  A549/ATCC NSCLC        Yes
2  Cc1ccc(/C=N/Nc2nc(Nc3ccccc3)nc(Nc3ccc(S(N)(=O)=O)cc3)n2)cc1  A549/ATCC NSCLC         No
3         CCCCSC1=C(Cl)CN(c2ccc(Cl)cc2)C1=O  A549/ATCC NSCLC         No

# evaluate next
(Q) Called result for Cc1ccc2c(n1)C(=O)C(Cl)=C(Nc1ccc(C(F)(F)F)cc1)C2=O
(A) No

* * *

Tested on: MDA-MB-435 melanoma
assayMethodText: NCI-60 one-dose screen, 48 h
measurementConditions: 10 µM unless noted
The panel holds about 83,000 compounds, 20% with a hit somewhere; the sample as a whole holds those more often. The source made the active and inactive calls. Rule for the calls: active = growth percent below 10; inactive = the rest.
Lab note: assign the record to one of active, inactive

For orientation, consider the following solved cases.
> print(dat)
                               recordsmiles  classname
1  CCOC(=O)c1c(NC(=O)c2ccc(C(F)(F)F)cc2)sc2c(CN3CCN(C)CC3)c(O)ccc12     active
2  COc1ccc2c(c1)c(-c1nn3cc(-c4ccncc4)nc3s1)cn2C   inactive
3  CC(=C(c1ccc(OCCN2CCCC2)cc1)c1ccc(OCCN2CCCC2)cc1)c1ccc(Cl)cc1     active
4  Cc1ccc2c(n1)C(=O)C(Cl)=C(Nc1ccc(C(C)C)cc1)C2=O     active
5  O=S(=O)(NCCCNc1nccc(-c2[nH]c(-c3ccccc3)nc2-c2ccc(F)c(O)c2)n1)c1cccc2ccccc12   inactive
6  CCCCCCN1C=C/C(=C\C(=O)n2ccc3ccccc32)c2ccccc21   inactive
7  Clc1ccc2[nH]cc(-c3nn4cc(-c5cccnc5)nc4s3)c2c1   inactive

# evaluate next
(Q) Called result for COc1cc(C(=O)c2cc(C(C)=O)c3cccc(C)n23)cc(OC)c1OC
(A) active

* * *

So I've got a bunch of compounds here, and I need their growth values.
Tested on: DU-145 prostate
assayMethodText: NCI-60 one-dose screen, 48 h (100 = growth as untreated, 0 = no growth, -100 = all killed)
measurementConditions: 10 µM unless noted
This is part of a sample that, as a whole, favours compounds with a hit. Of some 83,000 tested, about 20% had one in any assay.
One number for each entry, in %.

Consider the following illustrative entries.
compound	growth / %
C/C(CC1(O)C(=O)Nc2ccccc21)=N\O (centres undefined)	109
O=C(/C=C/c1ccc(Cl)c(Cl)c1)Nc1ncc(Cc2ccc(Cl)c(Cl)c2)s1	49.5
CCN(CC)c1ccc(/C=N/NC(=O)c2ccc(NS(C)(=O)=O)cc2)c(O)c1	31.3
O=C(/C=C/c1cc(Cl)ccc1Cl)Nc1ncc(Cc2ccc(Cl)cc2)s1	14.8
CC[C@]12C=CCN3CC[C@]4(C(=C(C(=O)OC)C1)Nc1cc5c(cc14)[C@@H]1[C@H](O5)[C@@H](O)[C@@]4(CC)CC(C(=O)OC)=C5Nc6cc(O)ccc6[C@@]56CCN1C46)C32 (some centres undefined)	22
COc1ccc(/C=N/NC(=O)c2c(N)nn(C)c2Nc2ccccc2)cc1Oc1ccccc1	101

# batch size: 3; output growth per entry
1. COc1ccc2[nH]cc(/C=N/Nc3ccnc4cc(Cl)ccc34)c2c1
2. Cn1c2nc3ccccc3c-2cc2ccccc21
3. CN1CCN(Cc2ccc(NC(=O)c3cncc(C#Cc4cnc(N)nc4)c3)cc2C(F)(F)F)CC1

(A)
1. -98.9
2. 30.9
3. 34.4
